Measurement record for MDM2 (Homo sapiens); quantity recorded: IC50.
Number only, in nM; omit the unit.

COc1ccc(-c2nc3c(n2C(C)C)[C@@]2(C(=O)Nc4cc(Cl)ccc42)N(c2cc(Cl)cnc2C)C3=O)c(OC)c1; 1.31
COc1ccc(-c2nc3c(n2C(C)C)[C@@]2(C(=O)Nc4cc(Cl)ccc42)N(c2cc(Cl)ccc2C)C3=O)c(OC)c1; 2.38
CCOc1ccc(-c2nc3c(n2C(C)C)[C@@]2(C(=O)Nc4cc(Cl)ccc42)N(c2cc(Cl)ccc2C)C3=O)c(OC)c1; 2.34
COc1nc(C2CC2)ncc1-c1nc2c(n1C(C)C)[C@@]1(C(=O)Nc3cc(Cl)ccc31)N(c1cc(Cl)cnc1C)C2=O; 2.8
COc1ncc(-c2nc3c(n2C(C)C)[C@@]2(C(=O)Nc4cc(Cl)ccc42)N(c2ccc(C)c(Cl)c2)C3=O)c(OC)n1; 4.39

Req: Tell me IC50 of COc1nc(C(C)C)ccc1-c1nc2c(n1C(C)C)[C@]1(C(=O)Nc3cc(Cl)ccc31)N(c1cc(Cl)ccc1C)C2=O when tested on MDM2 (Homo sapiens).
Sequence (Q00987 whole entry): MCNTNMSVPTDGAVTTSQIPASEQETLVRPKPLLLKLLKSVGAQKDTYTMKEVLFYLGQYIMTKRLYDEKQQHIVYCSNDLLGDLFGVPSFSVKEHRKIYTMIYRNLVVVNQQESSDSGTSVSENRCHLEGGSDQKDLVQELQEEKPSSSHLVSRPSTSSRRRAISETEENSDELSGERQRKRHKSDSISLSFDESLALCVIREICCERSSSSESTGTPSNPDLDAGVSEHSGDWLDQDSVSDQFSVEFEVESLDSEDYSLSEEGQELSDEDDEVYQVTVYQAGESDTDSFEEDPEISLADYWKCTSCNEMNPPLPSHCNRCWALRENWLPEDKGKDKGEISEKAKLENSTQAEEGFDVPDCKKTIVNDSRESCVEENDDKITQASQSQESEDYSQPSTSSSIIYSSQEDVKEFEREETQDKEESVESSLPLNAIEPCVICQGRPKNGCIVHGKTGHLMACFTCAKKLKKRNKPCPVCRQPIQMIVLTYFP
Resp: 2280

###

In this section we review reported IC50 values for a set of compounds.
Target: MDM2 (Homo sapiens)
The response must be a number in nM with no trailing unit.

Req: State the measured IC50 (MDM2 (Homo sapiens)) of COc1cc(OC)c(-c2nc3c(n2C(C)C)[C@]2(C(=O)Nc4cc(Cl)ccc42)N(c2cc(Cl)cnc2C)C3=O)cn1
Resp: 120

Req: Find the measured IC50 of COc1cc(C(C)C)ncc1-c1nc2c(n1C(C)C)[C@@]1(C(=O)Nc3cc(Cl)ccc31)N(c1cc(Cl)ccc1C)C2=O with MDM2 (Homo sapiens) as test system.
Resp: 0.94

Req: # lookup: MDM2 (Homo sapiens) IC50, key = COc1cc(OC(F)(F)F)ccc1-c1nc2c(n1C(C)C)[C@@]1(C(=O)Nc3cc(Cl)ccc31)N(c1cccc(Cl)c1)C2=O
Resp: 9.01

###

Each entry below carries its reported IC50.
Target: MDM2 (Homo sapiens)
Construct: made in house
Assay: Inhibition test of MDM2-P53 (GST-MDM2, Biotin-P53, Anti-GST-Tb, SA-XL665)
Type: binding
Description: Experimental purpose: To determine the inhibitory activities of the compounds of the present invention on MDM2. The present experiment uses the following assay methods/instruments/reagents: Buffer: 1×PBS+0.1% BSA+5 mM DTT; MDM2 Buffer: Buffer+1 mM AEBSF GST-MDM2: The final concentration is 4 nM, and it is required to formulate a 20 nM (5×) solution. […] Readings were obtained from the Microplate reader, and data was processed by Graphpad Prism 6.0.
Give the value in nM but do not write nM after it.

COc1cc(OC(C)C)ncc1-c1nc2c(n1C(C)C)[C@]1(C(=O)Nc3cc(Cl)ccc31)N(c1cccc(Cl)c1)C2=O; 1670

Req: Check the records and state IC50 for COc1c(F)cccc1-c1nc2c(n1C(C)C)[C@@]1(C(=O)Nc3cc(Cl)ccc31)N(c1cc(Cl)ccc1C)C2=O
Resp: 4.23

Req: Identify measured IC50 corresponding to COc1cc(OCCF)ncc1-c1nc2c(n1C(C)C)[C@]1(C(=O)Nc3cc(Cl)ccc31)N(c1cc(Cl)cnc1C)C2=O
Resp: 528

Req: Fill in IC50 for record COc1cc(OC)c(-c2nc3c(n2C(C)C)[C@@]2(C(=O)Nc4cc(Cl)ccc42)N(c2cc(Cl)cnc2C)C3=O)cn1
Resp: 1.17

Req: Return the recorded IC50 value; entry: COc1nc(N(C)C)ncc1-c1nc2c(n1C(C)C)[C@]1(C(=O)Nc3cc(Cl)ccc31)N(c1cc(Cl)ccc1C)C2=O
Resp: 394

Req: Return IC50 (reported value) for this compound: CCOc1cc(OC)c(-c2nc3c(n2C(C)C)[C@]2(C(=O)Nc4cc(Cl)ccc42)N(c2cccc(Cl)c2)C3=O)cn1
Resp: 413

Req: Give me measured IC50, please, for this compound: COc1ncc(-c2nc3c(n2C(C)C)[C@@]2(C(=O)Nc4cc(Cl)ccc42)N(c2cc(Cl)ccc2C)C3=O)c(OC)n1
Resp: 1.13

Req: Complete the entry with IC50 for CCOc1ccc(-c2nc3c(n2C(C)C)[C@@]2(C(=O)Nc4cc(Cl)ccc42)N(c2cccc(Cl)c2)C3=O)c(OC)c1
Resp: 3.14

Req: Name the recorded IC50 of the compound listed here: COc1nc(OC(C)C)ncc1-c1nc2c(n1C(C)C)[C@@]1(C(=O)Nc3cc(Cl)ccc31)N(c1cccc(Cl)c1)C2=O
Resp: 2.91

Req: Give the value of IC50 reported for the following: Cc1ccc(Cl)cc1N1C(=O)c2nc(-c3ccccc3OC(C)C)n(C(C)C)c2[C@@]12C(=O)Nc1cc(Cl)ccc12
Resp: 139

Req: Look up and state reported IC50 for CCc1ccc(-c2nc3c(n2C(C)C)[C@@]2(C(=O)Nc4cc(Cl)ccc42)N(c2cc(Cl)ccc2C)C3=O)c(OC)c1
Resp: 2.47

Req: Specify IC50 for COc1cc(C2CC2)ccc1-c1nc2c(n1C(C)C)[C@@]1(C(=O)Nc3cc(Cl)ccc31)N(c1cccc(Cl)c1)C2=O and stop.
Resp: 4.18

Req: Give the reported value of IC50 for this record: COc1cc(C(F)(F)F)ccc1-c1nc2c(n1C(C)C)[C@]1(C(=O)Nc3cc(Cl)ccc31)N(c1cc(Cl)ccc1C)C2=O
Resp: 494

###

compounds and their reported AUC(0-inf)
Assay: Pharmacokinetics in ICR mice after intravenous and intragastric administration
Format: in vivo
Conditions: male, ICR, mouse, plasma, iv, 2 mg/kg, ICR mice, IV 2 mg/kg, individual animals 301-303
Answer format: numeric, ng·h/mL implied, no suffix.

COc1nc(C2CC2)ncc1-c1nc2c(n1C(C)C)[C@@]1(C(=O)Nc3cc(Cl)ccc31)N(c1cc(Cl)cnc1C)C2=O [Example S-159]; 3720

Req: For COc1nc(N(C)C)ncc1-c1nc2c(n1C(C)C)[C@@]1(C(=O)Nc3cc(Cl)ccc31)N(c1cc(Cl)cnc1C)C2=O [Example S-135] , write its AUC(0-inf).
Resp: 7840

Req: Read off the recorded AUC(0-inf) for COc1cc(OC(C)C)ncc1-c1nc2c(n1C(C)C)[C@@]1(C(=O)Nc3cc(Cl)ccc31)N(c1cc(Cl)cnc1C)C2=O [Example S-137]
Resp: 9740

Req: Assign AUC(0-inf) to the following record: CCOc1ncc(-c2nc3c(n2C(C)C)[C@@]2(C(=O)Nc4cc(Cl)ccc42)N(c2cc(Cl)cnc2C)C3=O)c(OC)n1 [Example S-134]
Resp: 5060

Req: For the compound COc1cc(C(F)(F)F)ncc1-c1nc2c(n1C(C)C)[C@@]1(C(=O)Nc3cc(Cl)ccc31)N(c1cc(Cl)ccc1C)C2=O [Example S-138] , report AUC(0-inf).
Resp: 6130

###

Assay: Pharmacokinetics in ICR mice after intravenous and intragastric administration
Assay type: in vivo
Details: male, ICR, mouse, plasma, iv, 2 mg/kg, ICR mice, IV 2 mg/kg, individual animal; read-out: t1/2 (converted)
ENDPOINT NAME: half-life (h)
Provide the reading as a plain figure in h.

Worked cases, answers included:
COc1nc(C2CC2)ncc1-c1nc2c(n1C(C)C)[C@@]1(C(=O)Nc3cc(Cl)ccc31)N(c1cc(Cl)ccc1C)C2=O; 5.25
COc1cc(OC(C)C)ncc1-c1nc2c(n1C(C)C)[C@@]1(C(=O)Nc3cc(Cl)ccc31)N(c1cc(Cl)ccc1C)C2=O; 2.88

Moving on to another compound below.
Req: Read the entry COc1cc(C2CC2)ncc1-c1nc2c(n1C(C)C)[C@@]1(C(=O)Nc3cc(Cl)ccc31)N(c1cc(Cl)ccc1C)C2=O and write its reported half-life.
Resp: 2.89

###

Experiment: Pharmacokinetics in ICR mice after intravenous and intragastric administration
Assay type: in vivo
Conditions: male, ICR, mouse, plasma, iv, 2 mg/kg, ICR mice, IV 2 mg/kg, mean of 3 animals; read-out: AUC(0-t)
ENDPOINT NAME: AUC(0-t)
Include the unit after the number when you answer.

CCOc1cc(OC)c(-c2nc3c(n2C(C)C)[C@@]2(C(=O)Nc4cc(Cl)ccc42)N(c2cc(Cl)ccc2F)C3=O)cn1; 10000 ng·h/mL

Req: Give a short answer stating reported AUC(0-t) for COc1ncc(-c2nc3c(n2C(C)C)[C@@]2(C(=O)Nc4cc(Cl)ccc42)N(c2cc(Cl)ccc2F)C3=O)c(OC)n1 .
Resp: 2730 ng·h/mL

Req: Provide AUC(0-t) value for the following compound: COc1cc(OC(C)C)ncc1-c1nc2c(n1C(C)C)[C@@]1(C(=O)Nc3cc(Cl)ccc31)N(c1cc(Cl)ccc1C)C2=O
Resp: 51800 ng·h/mL
